test system: Candida parapsilosis Y-1763; format: cell-based; conditions: Y-1763, 24 h
Bridge positions count the residues as written; N and C are the ends. Peptide text beside a SMILES is read from it.
Reported metric: MIC against Candida parapsilosis Y-1763

query: Value lookup for MIC against Candida parapsilosis Y-1763; key = CSCC[C@@H]1NC(=O)[C@H](C(C)C)NC(=O)[C@H](C(C)C)NC(=O)[C@H](CC(C)C)NC(=O)[C@H](Cc2c[nH]c3ccccc23)NC(=O)[C@H](C(C)C)NC(=O)[C@@H](NC(=O)[C@H](Cc2c[nH]c3ccccc23)NC(=O)[C@@H](N)CCCNC(=N)N)CSSC[C@@H](C(=O)N[C@@H](CCCCN)C(=O)N[C@@H](CCCCN)C(N)=O)NC1=O [RP513] (H-RWCVWLVVMCKK-NH2; disulfide 3-10)
result: >128 µg/mL

Value source: paper PMC7559897
